The reported numbers originate from patent US10131663B2.

# METHOD_NOTES: log D (shake flask, 1-octanol/aqueous buffer)
# Type: physicochemical
# MEASUREMENT_SETUP: pH 7.4, 1-octanol/aqueous buffer

{"TEST_SMILES": "COc1cc(NC2CN(CCCF)C2)ccc1[C@@H]1c2ccc3[nH]ncc3c2C[C@@H](C)N1CC(F)(F)CO", "logD": 2.5}
{"TEST_SMILES": "CC1(C)Cc2c(ccc3[nH]ncc23)[C@@H](c2ccc(NC3CN(CCCF)C3)cn2)N1CC(F)F", "logD": 3}
{"TEST_SMILES": "C[C@@H]1Cc2c(ccc3[nH]ncc23)[C@@H](c2ncc(NC3CN(CCCF)C3)cc2F)N1CC(F)(F)CF", "logD": 3.2}
{"TEST_SMILES": "C[C@@H]1Cc2c(ccc3[nH]ncc23)[C@@H](c2ccc(N(C)C3CN(CCCF)C3)cn2)N1CC(F)(F)F", "logD": 3.2}
{"TEST_SMILES": "FCCCN1CC(Nc2ccc([C@@H]3c4ccc5[nH]ncc5c4C[C@@H](C(F)F)N3CC(F)F)nc2)C1", "logD": 2.7}
{"TEST_SMILES": "COc1cc(NC2CN(CCCF)C2)ccc1[C@@H]1c2ccc3[nH]ncc3c2C[C@@H](C)N1CC1(F)CC1", "logD": 2.4}
{"TEST_SMILES": "C[C@@H]1Cc2c(ccc3[nH]ncc23)[C@@H](c2ccc(NC3CN(CCCF)C3)cn2)N1CC1(F)CC1", "logD": 2.5}

----------
# METHOD_NOTES: Thermodynamic solubility (shake-flask)
# Type: physicochemical
# MEASUREMENT_SETUP: aqueous phosphate buffer, 25 °C, pH 7.4, aqueous buffer, thermodynamic from solid, aqueous phosphate buffer pH 7.4, 24 hours
Binary classification by solubility at 24 h, with 500 µM as an inclusive lower bound for Criterion met; all other cases are Criterion not met.

{"COMPOUND": "C[C@@H]1Cc2c(ccc3[nH]nc(F)c23)[C@@H](c2ncc(NC3CN(CCCF)C3)cc2F)N1CC(F)(F)F [Example 33]", "CLASS_ASSIGNMENT": "Criterion not met"}
{"COMPOUND": "COc1cc(OC2CN(CCCF)C2)ccc1[C@@H]1c2ccc3[nH]ncc3c2C[C@@H](C)N1CC1(F)CC1 [Example 7]", "CLASS_ASSIGNMENT": "Criterion not met"}
{"COMPOUND": "COc1cc(NC2CN(CCCF)C2)ccc1[C@@H]1c2ccc3[nH]ncc3c2C[C@@H](C)N1CC1(F)CC1 [Example 6]", "CLASS_ASSIGNMENT": "Criterion met"}
{"COMPOUND": "C[C@@H]1Cc2c(ccc3[nH]ncc23)[C@@H](c2ncc(NC3CN(CCCF)C3)cc2F)N1CC1(F)CC1 [Example 18]", "CLASS_ASSIGNMENT": "Criterion met"}
{"COMPOUND": "C[C@@H]1Cc2c(ccc3[nH]ncc23)[C@@H](c2ccc(NC3CN(CCCF)C3)nc2F)N1CC(F)(F)F [Example 40]", "CLASS_ASSIGNMENT": "Criterion not met"}
{"COMPOUND": "C[C@@H]1Cc2c(ccc3[nH]ncc23)[C@@H](c2ccc(N(C)C3CN(CCCF)C3)cn2)N1CC(F)(F)F [Example 34]", "CLASS_ASSIGNMENT": "Criterion not met"}
{"COMPOUND": "C[C@@H]1Cc2c(ccc3[nH]ncc23)[C@@H](c2ccc(NC3CN(CCCF)C3)cn2)N1CC(C)(F)F [Example 70]", "CLASS_ASSIGNMENT": "Criterion met"}

----------
# EXPERIMENTAL_SYSTEM: hERG potassium channel (Homo sapiens (Human))
# Sequence (Q12809 whole entry): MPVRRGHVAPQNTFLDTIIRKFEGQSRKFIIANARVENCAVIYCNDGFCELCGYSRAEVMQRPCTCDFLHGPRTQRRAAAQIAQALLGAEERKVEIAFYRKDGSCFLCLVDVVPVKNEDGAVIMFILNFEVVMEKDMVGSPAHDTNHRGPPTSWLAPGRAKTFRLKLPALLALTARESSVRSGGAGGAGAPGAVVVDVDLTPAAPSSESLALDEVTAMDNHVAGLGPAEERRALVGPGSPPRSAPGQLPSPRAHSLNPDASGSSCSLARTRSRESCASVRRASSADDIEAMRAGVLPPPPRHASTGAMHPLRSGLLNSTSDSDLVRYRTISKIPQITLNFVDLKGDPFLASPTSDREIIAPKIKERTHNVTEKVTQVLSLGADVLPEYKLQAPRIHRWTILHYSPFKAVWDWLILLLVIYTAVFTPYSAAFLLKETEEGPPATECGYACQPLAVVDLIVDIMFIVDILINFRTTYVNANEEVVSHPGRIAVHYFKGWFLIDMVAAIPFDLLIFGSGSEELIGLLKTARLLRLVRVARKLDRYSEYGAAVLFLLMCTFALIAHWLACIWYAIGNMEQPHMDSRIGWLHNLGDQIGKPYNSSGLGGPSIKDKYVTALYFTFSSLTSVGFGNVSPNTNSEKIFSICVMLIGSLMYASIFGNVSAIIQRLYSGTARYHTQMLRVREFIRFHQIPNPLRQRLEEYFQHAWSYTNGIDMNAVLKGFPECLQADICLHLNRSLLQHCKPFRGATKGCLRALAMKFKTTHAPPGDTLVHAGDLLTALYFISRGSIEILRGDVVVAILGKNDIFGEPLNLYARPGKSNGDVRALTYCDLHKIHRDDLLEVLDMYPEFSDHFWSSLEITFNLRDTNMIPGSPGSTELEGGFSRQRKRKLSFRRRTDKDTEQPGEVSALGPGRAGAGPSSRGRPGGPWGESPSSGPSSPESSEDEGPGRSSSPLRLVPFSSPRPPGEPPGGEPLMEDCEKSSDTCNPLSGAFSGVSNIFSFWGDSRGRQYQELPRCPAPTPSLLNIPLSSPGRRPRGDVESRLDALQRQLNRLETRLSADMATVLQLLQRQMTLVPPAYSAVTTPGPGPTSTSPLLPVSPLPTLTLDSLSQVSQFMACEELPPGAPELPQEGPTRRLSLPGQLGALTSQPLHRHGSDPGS
# METHOD_NOTES: hERG binding assay (automated patch clamp, CHO cells)
# Type: cell-based
# MEASUREMENT_SETUP: CHO cell line, Nanion Syncropatch 384PE
pIC50: −log10 of the molar value.
List of pIC50 values.

{"TEST_SMILES": "C[C@@H]1Cc2c(ccc3[nH]ncc23)[C@@H](c2ncc(OC3CN(CCCF)C3)cc2F)N1CC(F)(F)CO", "RELATION_SIGN": "<", "pIC50": 4.40}
{"TEST_SMILES": "COCC(F)(F)CN1[C@H](c2ccc(NC3CN(CCCF)C3)cc2OC)c2ccc3[nH]ncc3c2C[C@H]1C", "RELATION_SIGN": "=", "pIC50": 5.00}
{"TEST_SMILES": "COc1cc(NC2CN(CCCF)C2)ccc1[C@@H]1c2ccc3[nH]ncc3c2C[C@@H](C)N1CC(C)(F)F", "RELATION_SIGN": "=", "pIC50": 5.27}
{"TEST_SMILES": "C[C@@H]1Cc2c(ccc3[nH]ncc23)[C@@H](c2c(F)cc(NC3CN(CCCF)C3)cc2F)N1CC(F)(F)CO", "RELATION_SIGN": "=", "pIC50": 4.89}
{"TEST_SMILES": "C[C@@H]1Cc2c(ccc3[nH]ncc23)[C@@H](c2cnc(NC3CN(CCCF)C3)cn2)N1CC(F)F", "RELATION_SIGN": "=", "pIC50": 4.89}
{"TEST_SMILES": "C[C@@H]1Cc2c(ccc3[nH]nc(F)c23)[C@@H](c2ccc(NC3CN(CCCF)C3)c(F)n2)N1CC(F)(F)F", "RELATION_SIGN": "=", "pIC50": 4.85}
{"TEST_SMILES": "COCC(F)(F)CN1[C@H](c2ccc(NC3CN(CCCF)C3)cn2)c2ccc3[nH]ncc3c2C[C@H]1C", "RELATION_SIGN": "<", "pIC50": 4.40}

----------
# METHOD_NOTES: log D (shake flask, 1-octanol/aqueous buffer)
# Format: physicochemical
# MEASUREMENT_SETUP: 1-octanol/aqueous buffer, pH 7.4, pH 7.4, 1-octanol/aqueous buffer
Binary classification by logD, with 3 as an inclusive lower bound for condition met; all other cases are condition not met.

{"MOLECULE": "COc1cc(NC2CN(CCCF)C2)ccc1[C@@H]1c2ccc3[nH]ncc3c2C[C@@H](C)N1CC1(CF)COC1", "CLASS_ASSIGNMENT": "condition not met"}
{"MOLECULE": "COCC(F)(F)CN1[C@H](c2ccc(NC3CN(CCCF)C3)cn2)c2ccc3[nH]ncc3c2C[C@H]1C", "CLASS_ASSIGNMENT": "condition not met"}
{"MOLECULE": "COc1cc(NC2CN(CCC(F)(F)F)C2)ccc1[C@@H]1c2ccc3[nH]ncc3c2C[C@@H](C)N1CC1(F)CC1", "CLASS_ASSIGNMENT": "condition met"}
{"MOLECULE": "C[C@@H]1Cc2c(ccc3[nH]nc(F)c23)[C@@H](c2ccc(NC3CN(CCCF)C3)cn2)N1CC(F)(F)F", "CLASS_ASSIGNMENT": "condition met"}
{"MOLECULE": "COC[C@](C)(F)CN1[C@H](c2ccc(NC3CN(CCCF)C3)cc2OC)c2ccc3[nH]ncc3c2C[C@H]1C (single isomer, unassigned)", "CLASS_ASSIGNMENT": "condition not met"}
{"MOLECULE": "C[C@@H]1Cc2c(ccc3[nH]ncc23)[C@@H](c2ccc(NC3CN(CCCF)C3)c(F)c2)N1CC(F)(F)F", "CLASS_ASSIGNMENT": "condition met"}
{"MOLECULE": "C[C@@H]1Cc2c(ccc3[nH]ncc23)[C@@H](c2c(F)cc(NC3CN(CCCF)C3)cc2F)N1CC(F)F", "CLASS_ASSIGNMENT": "condition met"}
{"MOLECULE": "C[C@@H]1Cc2c(ccc3[nH]ncc23)[C@@H](c2c(F)cc(NC3CN(CCCF)C3)cc2F)N1CC(F)(F)CO", "CLASS_ASSIGNMENT": "condition met"}
{"MOLECULE": "C[C@@H]1Cc2c(ccc3[nH]ncc23)[C@@H](c2c(F)cc(NC3CN(CCCF)C3)cc2F)N1CC(C)(F)CO (single isomer, unassigned)", "CLASS_ASSIGNMENT": "condition met"}
{"MOLECULE": "COc1cc(NC2CN(CCCF)C2)ccc1[C@]1(C)c2ccc3[nH]ncc3c2C[C@@H](C)N1CC(F)F", "CLASS_ASSIGNMENT": "condition met"}
{"MOLECULE": "C[C@@H]1Cc2c(ccc3[nH]ncc23)[C@@H](c2ccc(NC3CN(CCCF)C3)nc2F)N1CC(F)(F)F", "CLASS_ASSIGNMENT": "condition met"}
{"MOLECULE": "CCOc1cc(NC2CN(CCCF)C2)ccc1[C@@H]1c2ccc3[nH]ncc3c2C[C@@H](C)N1CC1(F)CC1", "CLASS_ASSIGNMENT": "condition not met"}
{"MOLECULE": "COCC(C)(F)CN1[C@H](c2ccc(NC3CN(CCCF)C3)cc2OC)c2ccc3[nH]ncc3c2C[C@H]1C (some centres unmarked)", "CLASS_ASSIGNMENT": "condition not met"}
{"MOLECULE": "C[C@@H]1Cc2c(ccc3[nH]ncc23)[C@@H](c2ccc(NC3CN(CCCF)C3)c(F)n2)N1CC(F)F", "CLASS_ASSIGNMENT": "condition not met"}
